# assay.remarks: gradient 5% acetonitrile 3 min, to 50% in 2 min, to 85% in 15 min, held 3 min, 100 µL/min
# condition.label: column: Zorbax Extend-C18 2.1 x 50 mm; eluents: water / acetonitrile, 0.1% formic acid
Classes (RP-LC retention time): low-valued (below 700 s), mid-valued (700 s to below 900 s), high-valued (900 s or more)

Example entries begin here.
input: Which class is correct for the following compound? CCN1CCN(CCNC(=O)c2cc(-c3ccc(Cl)cc3)cn2C)CC1
output: low-valued

input: Which class is correct for the following compound? CCOC(=O)c1ccc(CNC(=O)N2CCC(c3nc4ccncc4n3C)C2)cc1 (stereo not drawn)
output: low-valued

input: Which class is correct for the following compound? Cc1nnc2sc(SCC(=O)NCc3ccc4c(c3)OCO4)nn2c1=O
output: low-valued

input: Which class is correct for the following compound? COCc1noc([C@@H]2CN(Cc3ccc(Br)o3)C[C@H]2C(N)=O)n1
output: low-valued

Further cases:
input: Which class is correct for the following compound? Cc1cc(C(=O)Nc2nc3c(s2)CN(C(=O)c2cccn(C)c2=O)CC3)no1
output: low-valued

input: Which class is correct for the following compound? CC(C)CC(=O)Nc1ccc2c(c1)nc(CN1CCN(C(=O)c3ccco3)CC1)n2C
output: low-valued
